The reported numbers originate from the supplement of paper PMC10567573.

- TEST PROTOCOL: protein stability index of a GFP-peptide fusion (GPS, HEK-293T) (PSI 1-6); higher = more stable;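 also: 24-mer peptide tiles fused after GFP, lentivirally expressed, FACS-sorted into six equal bins by GFP/DsRed ratio, decoded by Illumina sequencing, PSI is the read-weighted mean bin number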
- RECORDED CONDITIONS: treatment: DMSO; c terminus: a fixed tail appended
VALUE TYPE: protein stability index

[[record]]
sequence_data = "MNPYNAVLTKKFQVTMRGLLSCLS [FBXO39]"
assay_value = 2.7

[[record]]
sequence_data = "MVQQIQENSVEFEACLVAQCDALI [TRIM9]"
assay_value = 2.9

[[record]]
sequence_data = "EDGIHTLTCALMLLNTDLHGHNIG [PSD2]"
assay_value = 2.78

[[record]]
sequence_data = "LACRLTPDMETKLLFMTSRVRFGQ [INTS3]"
assay_value = 2.2

[[record]]
sequence_data = "YMTKPSKSLLPHLKTGNSSPGIGA [RTP4]"
assay_value = 3.13

[[record]]
sequence_data = "WGVFYYFVSALGITAGAHRLWSHR [SCD]"
assay_value = 3.38

[[record]]
sequence_data = "KYLKPSGNMFPTIGDVHLAPFTDE [CARM1]"
assay_value = 3.69

[[record]]
sequence_data = "NTFVRYLLKRIKKCCGMRNTDVSM [KCNK9]"
assay_value = 3.38

[[record]]
sequence_data = "NAGLSSTAGLLREQVAQLKQKVMT [JUNB]"
assay_value = 3.42

[[record]]
sequence_data = "TAPLYKDEKEQLIIPQVPLFNILA [USP39]"
assay_value = 2.15

[[record]]
sequence_data = "MTNHQLSTTEWNDETLYQEFNGLK [CHIT1]"
assay_value = 4.37

[[record]]
sequence_data = "QTLRQELSLPYLPSGTPELEVPKP [CHIT1]"
assay_value = 4.7


====

- TEST PROTOCOL: protein stability index of a GFP-peptide fusion (GPS, HEK-293T) (PSI 1-6); higher = more stable
- RECORDED CONDITIONS: treatment: MLN4924 1 uM, 8 h; c terminus: a fixed tail appended
Each entry below carries its recorded protein stability index.
VALUE TYPE: protein stability index

[[record]]
sequence_data = "MSPLQAMSSYTVAGRNVLRWDLSP [NLN]"
assay_value = 2.55

[[record]]
sequence_data = "KGYPDGVKSIVVKGYNIWTGGPDA [TLE6]"
assay_value = 2.8

[[record]]
sequence_data = "VFFVCFVPYHIARIPYTKSQTEAH [P2RY14]"
assay_value = 3.17

[[record]]
sequence_data = "HQTQLLYQASAMMVESRYALLIVD [RAD51]"
assay_value = 2.8


====

- TEST PROTOCOL: protein stability index of a GFP-peptide fusion (GPS, HEK-293T) (PSI 1-6); higher = more stable
- RECORDED CONDITIONS: treatment: MLN4924 1 uM, 8 h; c terminus: a fixed tail appended
Each entry below carries its recorded protein stability index.
VALUE TYPE: protein stability index

[[record]]
sequence_data = "KDSYSSRDYPSSRDTRDYAPPPRD [RBMX]"
assay_value = 4.09

[[record]]
sequence_data = "NAGLSSTAGLLREQVAQLKQKVMT [JUNB]"
assay_value = 3.39

[[record]]
sequence_data = "DKVLRFAQQIRLHHFNSSHLEIDD [MYORG]"
assay_value = 2.95

[[record]]
sequence_data = "SMPSYSSCTVTTVQPMDRLPYQHF [TBX5]"
assay_value = 2.64

[[record]]
sequence_data = "PGVFVLLACGTMSSTCGQLASYPL [SLC25A25]"
assay_value = 2.66


====

Each entry below carries its recorded protein stability index.
- TEST PROTOCOL: protein stability index of a GFP-peptide fusion (GPS, HEK-293T) (PSI 1-6); higher = more stable
- RECORDED CONDITIONS: treatment: MLN4924 1 uM, 8 h; c terminus: a fixed tail appended
VALUE TYPE: protein stability index

[[record]]
sequence_data = "SAPQQNGQPLRPLVPDASKQRLME [PDLIM7]"
assay_value = 4.89

[[record]]
sequence_data = "YIPRDVDETGITVASLERFSTYTS [ZC3H15]"
assay_value = 2.96

[[record]]
sequence_data = "RALARNLIFGLITCLTGVLGVGLG [SPNS1]"
assay_value = 2.92

[[record]]
sequence_data = "TPLLIAARYGHLDVVEYLVDRCGA [FEM1A]"
assay_value = 2.18

[[record]]
sequence_data = "SWSDGMAFCALVHSFFPDAFDYNS [SMTNL2]"
assay_value = 2.9

[[record]]
sequence_data = "KFLPSSEEDNDDAKILPSPVQGSS [DRICH1]"
assay_value = 5.47

[[record]]
sequence_data = "VKKCIFLLFINHRLVESTSLRKAI [MLH1]"
assay_value = 2.97

[[record]]
sequence_data = "ALVRLRETEEMLGKKQEYLENRIQ [CHMP4C]"
assay_value = 3.35

[[record]]
sequence_data = "NSHLTSVPHWINSNTLGFGTEQAP [ETS2]"
assay_value = 3.45

[[record]]
sequence_data = "PTDYQVNIQIIEYEKKQTLGQNDT [BTBD1]"
assay_value = 3.91

[[record]]
sequence_data = "PFVCPECGQPCSQKSGLIRHQKIH [ZNF649]"
assay_value = 4.78

[[record]]
sequence_data = "PLHNSGLLSLDPVQDKTPLYSQLL [MED27]"
assay_value = 2.92


====

Each entry below carries its recorded protein stability index.
- TEST PROTOCOL: protein stability index of a GFP-peptide fusion (GPS, HEK-293T) (PSI 1-6); higher = more stable
- RECORDED CONDITIONS: treatment: DMSO; c terminus: a fixed tail appended
VALUE TYPE: protein stability index

[[record]]
sequence_data = "LKLVSFSKLCTSYSHSSTRDGRRD [GOSR1]"
value_type = "protein stability index"
assay_value = 2.81

[[record]]
sequence_data = "KLERIARLEDKVKTLKAENAGLSS [JUNB]"
value_type = "protein stability index"
assay_value = 3.85

[[record]]
sequence_data = "QGKYECVATNSAGTRYSAPANLYV [PTPRD]"
value_type = "protein stability index"
assay_value = 2.9

[[record]]
sequence_data = "LIQQFLTLRPDQQLHIFNTLRSHL [CDS2]"
value_type = "protein stability index"
assay_value = 2.37

[[record]]
sequence_data = "LELVINYQQLCIYWTKYYDFKNPI [OAS1]"
value_type = "protein stability index"
assay_value = 3.22

[[record]]
sequence_data = "AVIRWMHSFNFVLSANLHGGAVVA [CPN1]"
value_type = "protein stability index"
assay_value = 2.95

[[record]]
sequence_data = "EVIEKPENDPEWWKCKNARGQVGL [NCK2]"
value_type = "protein stability index"
assay_value = 4.28

[[record]]
sequence_data = "NREACRDLSGRRLRDVNHEKAMAE [SDE2]"
value_type = "protein stability index"
assay_value = 5.01

[[record]]
sequence_data = "ILTADLYSLFVGLFLFGYKFSGLY [SLC35F2]"
value_type = "protein stability index"
assay_value = 2.45

[[record]]
sequence_data = "GTLIGVGQSVTAVGRIIAPLLSGV [MFSD9]"
value_type = "protein stability index"
assay_value = 2.03

[[record]]
sequence_data = "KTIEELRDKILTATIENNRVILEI [KRT13]"
value_type = "protein stability index"
assay_value = 2.57

[[record]]
sequence_data = "EAIKGLNGQKPLGAAEPITVKFAN [ELAVL3]"
value_type = "protein stability index"
assay_value = 3.94

[[record]]
sequence_data = "RALARNLIFGLITCLTGVLGVGLG [SPNS1]"
value_type = "protein stability index"
assay_value = 2.28

[[record]]
sequence_data = "LLAVPNIILTNQSVREVTQIKCIE [P2RY14]"
value_type = "protein stability index"
assay_value = 2.53

[[record]]
sequence_data = "GSTAITPGTPPSYSSRTPGTPGTP [MAP2]"
value_type = "protein stability index"
assay_value = 4.87

[[record]]
sequence_data = "KAEILESVIKNYEDHFPLLFSEAS [MAGEA10]"
value_type = "protein stability index"
assay_value = 3.06

[[record]]
sequence_data = "KMIGFPSSAGSVSPRSTSVTTTSS [KRT13]"
value_type = "protein stability index"
assay_value = 4.4

[[record]]
sequence_data = "VSAGGHTLSRPPPAQVPREVLKVQ [TFE3]"
value_type = "protein stability index"
assay_value = 3.95

[[record]]
sequence_data = "HSMHKYQPRIHLVRAAQLCSQHWG [TBX6]"
value_type = "protein stability index"
assay_value = 2.14

[[record]]
sequence_data = "CIHDHHCGSQLSSTKGSRSNLSTR [NETO1]"
value_type = "protein stability index"
assay_value = 3.04

[[record]]
sequence_data = "FLSGLAFRVFHCTQYVRHSSDPFY [TPH1]"
value_type = "protein stability index"
assay_value = 2.67

[[record]]
sequence_data = "LIYASYFALIAVVFLASGAVSVMK [SLC19A2]"
value_type = "protein stability index"
assay_value = 2.95

[[record]]
sequence_data = "SPVLLGWVEQAYADKCVCGPSAPP [TIAF1]"
value_type = "protein stability index"
assay_value = 2.67

